System: NCI-H23 lung
assay.method.text: NCI-60 one-dose screen, 48 h (100 = growth as untreated, 0 = no growth, -100 = all killed)
conditions: 10 µM unless noted
The panel holds about 83,000 compounds, 20% with a hit somewhere; the sample as a whole holds those more often.
Exam item: assign 1.0 to entries whose growth is below 40% and 0.0 to entries at or above 40%. Note that a value of exactly 40% receives 0.0.

Here are 2 compounds together with their reported answers.
1. O=C(Cc1ccc(/C=C/C(=O)c2nccs2)cc1)Nc1ccccc1 | 0.0
2. COC(=O)CNC(=O)[C@]12CCC(C)(C)C[C@H]1C1=CC[C@@H]3[C@@]4(C)Cc5c([nH]c6ccccc56)C(C)(C)[C@@H]4CC[C@@]3(C)[C@]1(C)CC2 | 0.0

Enquiry: Report whether reported growth is lower than 40% (strictly) for N#CC1C(C#N)C(C(=O)c2ccc(Br)cc2)N2c3ccccc3C=CC12 (configuration not stated)
Return: 0.0

Enquiry: Report whether reported growth is lower than 40% (strictly) for Cc1ncc(C(=O)Nc2ccc(CN3CCN(C)CC3)c(C(F)(F)F)c2)cc1C#Cc1cnc(N)cc1C#N
Return: 1.0

Enquiry: Report whether reported growth is lower than 40% (strictly) for COc1cc(/C=C\c2cc(/C=C\c3ccc(O)c(OC)c3)n(C(=O)COc3ccccc3)n2)ccc1O
Return: 1.0

Enquiry: Report whether reported growth is lower than 40% (strictly) for Cc1ccc(-n2c3c(c(-c4ccccc4)c2-c2ccccc2)C2=NCCN2C=N3)cc1
Return: 0.0

Enquiry: Report whether reported growth is lower than 40% (strictly) for O=C(Nc1ccc(NC(=O)c2cc(=O)[nH]c3ccccc23)cc1)Nc1cccc(Cl)c1
Return: 0.0
